testedSystem: SIRT1 (Homo sapiens, UniProt Q96EB6)
Sequence (Q96EB6 whole entry): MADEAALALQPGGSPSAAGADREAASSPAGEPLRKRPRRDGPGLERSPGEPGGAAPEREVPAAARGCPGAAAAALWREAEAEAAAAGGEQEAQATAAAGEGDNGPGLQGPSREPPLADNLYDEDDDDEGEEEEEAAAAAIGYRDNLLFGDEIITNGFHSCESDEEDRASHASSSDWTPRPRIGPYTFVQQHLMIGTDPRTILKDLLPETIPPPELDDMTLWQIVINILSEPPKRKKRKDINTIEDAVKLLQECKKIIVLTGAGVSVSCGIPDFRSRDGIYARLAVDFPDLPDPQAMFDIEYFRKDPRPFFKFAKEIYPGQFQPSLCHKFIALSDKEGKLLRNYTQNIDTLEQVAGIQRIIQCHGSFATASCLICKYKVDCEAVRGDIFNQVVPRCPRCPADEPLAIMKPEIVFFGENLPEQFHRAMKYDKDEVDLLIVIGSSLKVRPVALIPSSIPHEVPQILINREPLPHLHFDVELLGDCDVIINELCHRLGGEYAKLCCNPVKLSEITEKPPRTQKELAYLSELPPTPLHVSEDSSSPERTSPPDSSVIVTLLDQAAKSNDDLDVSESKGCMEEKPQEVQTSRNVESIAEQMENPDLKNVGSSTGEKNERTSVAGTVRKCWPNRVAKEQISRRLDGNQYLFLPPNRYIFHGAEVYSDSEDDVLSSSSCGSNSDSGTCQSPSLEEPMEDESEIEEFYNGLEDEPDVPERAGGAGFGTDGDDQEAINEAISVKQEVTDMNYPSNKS
testName: Trp mass spectrometry assay (SIRT1 activation)
Assay type: biochemical
measurementConditions: concentration of test compound that results in 150% activation of SIRT1; Trp peptide substrate
recordedEndpoint: Tryp AVG EC1.5 (μM)

These solved cases illustrate the format of a correct answer.
molecule	testedSystem	Tryp AVG EC1.5 (μM)
COc1cc(NC(=O)N2c3nc(-c4cncc(C(F)(F)F)c4)ccc3N3CC[C@H]2C3)ncn1 [Example 317]	SIRT1 (Homo sapiens, UniProt Q96EB6)	B (EC1.5 1-25 μM)
CN(C)[C@H]1CCN(c2ccc3c(n2)N(C(=O)Nc2cccnc2)[C@H]2CCN3C2)C1 [Example 242]	SIRT1 (Homo sapiens, UniProt Q96EB6)	B (EC1.5 1-25 μM)
O=C(Nc1ccccn1)N1c2nc(-c3ccc4nonc4c3)ccc2N2CC[C@H]1C2 [Example 372]	SIRT1 (Homo sapiens, UniProt Q96EB6)	B (EC1.5 1-25 μM)
Cc1ccc(-c2ccc3c(n2)N(C(=O)Nc2nc(C)c(C)s2)[C@H]2CCCN3C2)cn1 [Example 506]	SIRT1 (Homo sapiens, UniProt Q96EB6)	A (EC1.5<1 μM)
O=C(CCCC[C@@H]1SCC2NC(=O)NC21)NCCCCCC(=O)NCc1ccc(NC(=O)N2c3nc(-c4cccc(C(F)(F)F)c4)ccc3N3CCC[C@H]2C3)cc1 (stereo partly drawn) [Example 430]	SIRT1 (Homo sapiens, UniProt Q96EB6)	A (EC1.5<1 μM)
O=C(Nc1ccncc1F)N1c2nc(-c3cccc(Cl)c3)ccc2N2CCC[C@H]1C2 [Example 421]	SIRT1 (Homo sapiens, UniProt Q96EB6)	A (EC1.5<1 μM)
CS(=O)(=O)c1cncc(-c2ccc3c(n2)N(C(=O)Nc2cncc(F)c2)[C@H]2CCCN3C2)c1 [Example 377]	SIRT1 (Homo sapiens, UniProt Q96EB6)	A (EC1.5<1 μM)
CN(C)c1cccc(-c2ccc3c(n2)N(C(=O)Nc2ccccn2)[C@@H]2CCCN3C2)c1 [Example 251]	SIRT1 (Homo sapiens, UniProt Q96EB6)	C (EC1.5>25 μM)
O=C(Nc1cccc(-c2cnco2)n1)N1c2nc(-c3cccc(C(F)(F)F)c3)ccc2N2CCC[C@H]1C2 [Example 590]	SIRT1 (Homo sapiens, UniProt Q96EB6)	A (EC1.5<1 μM)
Cc1cncc(-c2ccc3c(n2)N(C(=O)Nc2ccccn2)[C@H]2CCN3C2)c1 [Example 325]	SIRT1 (Homo sapiens, UniProt Q96EB6)	A (EC1.5<1 μM)

Query string: Report Tryp AVG EC1.5 (μM), nothing else, for this molecule: CC1(CCC(=O)NCc2ccc(NC(=O)N3c4nc(-c5cccc(C(F)(F)F)c5)ccc4N4CC[C@H]3C4)cc2)N=N1 [Example 548]
Result string: B (EC1.5 1-25 μM)
